Hey, just so you know, these numbers are from paper PMC6273342.

assay: Alamar Blue cytotoxicity assay, summary over the tumor cell lines tested; conditions: mouse (B16-F10); human (HepG2, K562, HL-60)
Measure: IC50 at 72 h

COc1cc2c(cc1OC)-c1c(OC)c(OC)cc3c1[C@H](C2)N(C)CC3 [(+)-Glaucine, (+)-glaucine] = > 25 µg/mL
COc1cc2c(cc1O)CC1c3cc(OC)c(OC)cc3CCN1C2 (single isomer, unassigned; (-)) [(−)-Corytenchine, (−)-corytenchine] = > 25 µg/mL
COc1cc2c(cc1O)C[C@@H]1NCCc3cc(OC)c(OC)c-2c31 [(+)-Laurotetanine, (+)-laurotetanine] = > 25 µg/mL
COC1=C[C@]23CCN(C)[C@H](Cc4cc(OC)c(O)cc42)C3=CC1=O [(+)-Flavinantine, (+)-flavinantine] = > 25 µg/mL
COc1cc2c(cc1OC)CN1CCc3cc(OC)c(OC)cc3[C@@H]1C2 [(−)-Xylopinine, (−)-xylopinine] = > 25 µg/mL
COc1cc2c(cc1O)CC1c3c(cc(OC)c(OC)c3-2)CCN1C (single isomer, unassigned; (+)) [(+)-N-Methyllaurotetanine, (+)-N-methyllaurotetanine] = > 25 µg/mL

Recorded result, CN1CCc2cc3c(c4c2[C@H]1Cc1ccccc1-4)OCO3 [(−)-Roemerine, (−)-roemerine] , IC50 at 72 h: > 25 µg/mL
